These entries and their values trace back to paper PMC12864922.

Below, each of the binders is paired with its reported binding signal value.
target: TDP-43 (Homo sapiens, UniProt Q13148 1-414); assay: RNA Bind-n-Seq with designed 260-mer pool; 25 mM Tris-HCl, 150 mM KCl, 3 mM MgCl2, BSA (printed 500 mg/mL), 20 units/mL SUPERase IN; pH not stated; 500 nM RNA pool, 1 h, 4 C; TDP-43 5, 50, 500 nM; high values mean tight binding; settings: protein: recombinant; tags: SBP (GST cleaved off with PreScission; pGEX-GST-SBP)
Sequence (Q13148 whole entry): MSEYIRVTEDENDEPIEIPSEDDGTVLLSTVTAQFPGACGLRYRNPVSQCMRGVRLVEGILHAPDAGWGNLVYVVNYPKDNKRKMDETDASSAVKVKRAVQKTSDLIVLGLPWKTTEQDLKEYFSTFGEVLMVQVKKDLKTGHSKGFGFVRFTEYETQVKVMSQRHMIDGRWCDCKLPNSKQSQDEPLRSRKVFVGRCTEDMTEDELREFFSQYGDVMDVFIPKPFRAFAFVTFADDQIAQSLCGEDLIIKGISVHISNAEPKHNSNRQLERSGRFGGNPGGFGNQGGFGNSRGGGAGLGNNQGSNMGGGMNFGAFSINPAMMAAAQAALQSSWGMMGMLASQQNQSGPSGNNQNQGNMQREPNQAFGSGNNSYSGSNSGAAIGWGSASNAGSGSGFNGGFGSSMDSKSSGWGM
The full ranking holds about 9,900 sequences; the median of “r (bound/input frequency ratio)” is about 0.7, and the highest 2% start at about 6.5. The sample as a whole holds a higher share of the highest values than the screen did.

# Binder, binding signal
data = [
    ("ENSMUSG00000061578.34|Ksr2|40:50;139:145;150:154 (ssRNA) RNA: GGGAGUUCUACAGUCCGACGAUCGCUUCGAUAUCCGCAUGCUACCACUCAACUAGGACCAAACUGGGCCAGAGAGGGUCCCAACACACCACACAAGGAGCCACAGACUGAGCACACCACCUCGGACUGUGGAGACCAAGACACAUGCCCAGUGGGCAGACUCAGACUCACACGCUGGACCACACACACCGCAACACACUACACAUGGACAGGGCCAACUGCUAUCCUUCUGCCUGGACGAGCCAGCUGUGGAGUGUCCCAGCUGUGCUAUCCUGGAACACAGAACCAGGAUGGAACCAGAAACCUCUUGCGGUCGCACUAGUGUGGAAUUCUCGGGUGUCAAGG", "1.07 R (bound/input frequency ratio)"),
    ("ENSMUSG00000090935.711|Synj2bp (ssRNA) RNA: GGGAGUUCUACAGUCCGACGAUCGCUUCGAUAUCCGCAUGCUAAAGAACUGGGCUAAGUCCAGAGCUCUGCUCUCUGAGCAUCUGCCCCAGAUACAGAGGCAGAGUAUGAAGUGGAACAUUGUUUUAUUCCUAGGUGCUCAGGACAGACUGAUCAACCUCCAGUAACAUAUGUGGUUAGUAAGUGCUUCAGCUUGUGUAGCCAUUAAUAACCAAGUCAUAGGAUUGUGAAUCUAAAAUACUCCUGGGUAAAAUUUGUAUUAGAAUGGAAAAAAAAAUGAGGGUCAGAAAGGUGAGCUAACUUCCUCUUGCGGUCGCACUAGUGUGGAAUUCUCGGGUGUCAAGG", "1.47 R (bound/input frequency ratio)"),
    ("ENSMUSG00000090935.117|Synj2bp (ssRNA) RNA: GGGAGUUCUACAGUCCGACGAUCGCUUCGAUAUCCGCAUGCUAUUUGCCCUCACCAUGGUAGCAGUUUGGGCCUUCGUGAGAUACCGAAAGCAGCUUUGAAAUGCUUGCUGUCUUCCAGUGUGUCCAAUGAACUCUCUCUCUCACUCACCAUCUCUGACAUCCUCCCAUAUUCUUUCUCCUCCACAUAGCCAAUACAAGAUUUAAAGUGACUGCUUAUCACCCAAAACCCUGCUAUUCAAAAUCUCCUAUUCUAAUGGAAGAGUACAGGGGUUAUUUGAAGAAAAGCUGUGGUGGUGUGUGUGCUCUUGCGGUCGCACUAGUGUGGAAUUCUCGGGUGUCAAGG", "1.43 R (bound/input frequency ratio)"),
    ("ENSMUSG00000028439.159|Fam219a (ssRNA) RNA: GGGAGUUCUACAGUCCGACGAUCGCUUCGAUAUCCGCAUGCUACAGGAGCCAGGCUUCCAGAAAGGCUCUUCAAGAGCAAGCUUAAGGAAAUACAGUGAGCCAAGUGGCUGUAUGAUAUGGUAUGGUAUGGUAUGGUAUGGUAUGGUAUGGUAUGCACAUGUGUGUGCAUGUGUGUGUGCCUGUGUGUGUGCGUGUGCGUGUGUGUAUGUGUGUGCGUGUGUGUGUGUGUGUGUUGUACCCGAGUGUGUGUUGAGCCUAUCUGUCCAGGGAACCAGAUUGGUGUCCGAGAUGAGGAAAUGGCUCUCUUGCGGUCGCACUAGUGUGGAAUUCUCGGGUGUCAAGG", "7.39 R (bound/input frequency ratio)"),
]
